For each of the molecules below, state its normalized growth.
experiment: chemical genetic growth profiling, strain panel (AID 1159580);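 further: tested at 20 µM; growth read once vehicle control cultures reached saturation at 30 °C; 1 = growth at the plate median or of vehicle wells; lower values mean less growth of the strain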; conditions: S. cerevisiae deletion strains, growth OD, locus YDR001C, strain nth1, active compounds read low
The campaign covered roughly 5,500 compounds. About 2,000 (36%) were called active. Roughly 18% stayed inconclusive and do not appear here. The list shows a part of the results.
Numbers only.

{"MOLECULE": "O=C(/C=C(\\O)c1ccccc1)c1ccccc1O", "normalized growth": 0.903}
{"MOLECULE": "NC(=O)c1cc([N+](=O)[O-])cc([N+](=O)[O-])c1", "normalized growth": 1.01}
{"MOLECULE": "C[C@H]1O[C@H](O[C@H]2[C@H](O)[C@@H](O)[C@@H](O[C@H]3[C@H](O)[C@@H](O)C(O)O[C@@H]3CO)O[C@@H]2CO)[C@H](O)[C@@H](O)[C@@H]1N[C@H]1C=C(CO)[C@@H](O)[C@H](O)[C@H]1O (stereo not given in full)", "normalized growth": 0.995}
{"MOLECULE": "CN(C)CC[C@H](c1ccc(Cl)cc1)c1ccccn1", "normalized growth": 0.999}
{"MOLECULE": "Cc1c(C(N)=O)cc([N+](=O)[O-])cc1[N+](=O)[O-]", "normalized growth": 1.01}
{"MOLECULE": "CC(C)(C)NCC(O)COc1cccc2c1CCCC2=O (stereo not given)", "normalized growth": 0.976}
{"MOLECULE": "COC(=O)N/N=C\\c1c[n+]([O-])c2ccccc2[n+]1[O-]", "normalized growth": 0.998}
{"MOLECULE": "CC1(C)S[C@@H]2[C@H](NC(=O)C(C(=O)O)c3ccccc3)C(=O)N2[C@H]1C(=O)O (stereo not given in full)", "normalized growth": 0.98}
{"MOLECULE": "NC(=O)c1ccc([N+](=O)[O-])cc1Cl", "normalized growth": 0.965}

# next molecule below
*Q* Requested read-out: normalized growth. Entry: OC1(c2ccc(Cl)c(C(F)(F)F)c2)CCN(CCCC(c2ccc(F)cc2)c2ccc(F)cc2)CC1
*A* 0.0892

Data provenance: PubChem BioAssay AID1159580
